# tgt: Receptor tyrosine-protein kinase erbB-2 (Homo sapiens) (UniProt P04626)
# Sequence (P04626 whole entry, looked up): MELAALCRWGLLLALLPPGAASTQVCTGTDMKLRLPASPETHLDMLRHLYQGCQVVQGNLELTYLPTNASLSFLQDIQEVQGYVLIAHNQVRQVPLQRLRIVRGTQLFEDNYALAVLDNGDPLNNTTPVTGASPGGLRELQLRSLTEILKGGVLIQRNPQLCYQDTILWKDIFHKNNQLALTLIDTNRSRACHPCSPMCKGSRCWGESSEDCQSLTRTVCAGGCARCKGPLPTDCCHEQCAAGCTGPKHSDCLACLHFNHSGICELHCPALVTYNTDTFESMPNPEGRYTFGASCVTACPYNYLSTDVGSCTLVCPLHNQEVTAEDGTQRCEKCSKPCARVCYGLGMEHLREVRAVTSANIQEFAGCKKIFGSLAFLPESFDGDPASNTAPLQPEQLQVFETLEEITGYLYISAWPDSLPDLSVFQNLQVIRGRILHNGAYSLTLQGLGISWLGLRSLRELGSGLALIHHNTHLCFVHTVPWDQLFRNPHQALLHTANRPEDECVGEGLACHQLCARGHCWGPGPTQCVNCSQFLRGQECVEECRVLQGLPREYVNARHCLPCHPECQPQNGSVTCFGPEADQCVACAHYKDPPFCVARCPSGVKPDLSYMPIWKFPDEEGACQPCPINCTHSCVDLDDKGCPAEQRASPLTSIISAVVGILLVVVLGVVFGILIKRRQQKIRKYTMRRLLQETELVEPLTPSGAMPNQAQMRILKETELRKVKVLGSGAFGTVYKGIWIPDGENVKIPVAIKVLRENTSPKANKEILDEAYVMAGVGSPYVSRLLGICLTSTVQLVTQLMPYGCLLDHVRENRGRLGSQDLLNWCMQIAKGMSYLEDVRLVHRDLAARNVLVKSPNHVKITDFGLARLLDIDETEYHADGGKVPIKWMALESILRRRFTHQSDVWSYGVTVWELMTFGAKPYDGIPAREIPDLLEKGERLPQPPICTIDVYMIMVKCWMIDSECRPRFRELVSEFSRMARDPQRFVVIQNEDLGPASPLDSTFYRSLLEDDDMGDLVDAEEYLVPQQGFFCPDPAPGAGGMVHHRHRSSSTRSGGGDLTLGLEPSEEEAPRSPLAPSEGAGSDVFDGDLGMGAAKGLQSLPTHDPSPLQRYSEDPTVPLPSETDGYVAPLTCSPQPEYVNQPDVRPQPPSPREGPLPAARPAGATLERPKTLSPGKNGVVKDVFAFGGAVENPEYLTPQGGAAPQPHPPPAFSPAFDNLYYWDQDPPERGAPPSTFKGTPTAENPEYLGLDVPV
# method_description: reducers of endogenous Her2 protein level, primary screen, SKBR3 breast tumor cells, AlphaScreen, ATP viability (AID 461);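 further: lower value means less Her2 protein in the cells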
# measurement_parameters: 18-24 h, at 10 µM, stronger effect = lower value
measurement_label: Her2 level (%)
Return type: number; implicit unit %.

Field: example entries. Status: answers known.
# compound, measurement_label, test_value
data = [
    ("COc1ccccc1C(=O)Nc1ccc(N2CCN(S(C)(=O)=O)CC2)cc1", "Her2 level", 106),
    ("Cc1cc(=O)oc2ccc(OCC(=O)N3CCC(C)CC3)cc12", "Her2 level", 90),
    ("CCc1ccc(NC(=O)C2CC(=O)N(C(C)C)C2)cc1 (centres undefined)", "Her2 level", 104),
    ("Cc1ccc(NC(=O)c2ccc(NS(=O)(=O)c3c(C)noc3C)cc2)cc1C", "Her2 level", 81.5),
]

Please state recorded Her2 level (tested on Receptor tyrosine-protein kinase erbB-2 (Homo sapiens) (UniProt P04626)) of CCc1nn2c(=O)cc(CSc3nc4sc5c(c4c(=O)n3C)CCCC5)nc2s1
98

Okay, and O=C(O)CN1C(=O)CNC1=O ?
93.5

Okay, and CCNS(=O)(=O)c1c(C)cc(N2CCCC2=O)cc1C ?
109

Okay, and O=C(NCN1CCCCC1)c1cnccn1 ?
86

Okay, and CCn1c(SCC(N)=O)nc2c1c(=O)n(C)c(=O)n2C ?
95

Okay, and CCOC(=O)c1ccc(NC(=O)NC(C)C2CCCO2)cc1 (centres undefined) ?
96.5

Okay, and Cc1c(C2Nc3ccccc3NC3=C2C(=O)CC(C)(C)C3)cnn1C (centres undefined) ?
107

Okay, and C=CCSc1nc2c(c(=O)[nH]c(=O)n2C)n1C(C)C ?
89

Okay, and Cc1ccc(N2CCN(C(=S)c3ccc(N(C)C)cc3)CC2)cc1 ?
82.5

Okay, and CC(=O)C1=C(C)NC(SCSc2ccccc2)=C(C#N)C1c1cccnc1 (centres undefined) ?
106
